The origin of these recorded values is patent US20250073338A1.

# system_under_test: GPR40 (Homo sapiens)
# Sequence (O14842 whole entry): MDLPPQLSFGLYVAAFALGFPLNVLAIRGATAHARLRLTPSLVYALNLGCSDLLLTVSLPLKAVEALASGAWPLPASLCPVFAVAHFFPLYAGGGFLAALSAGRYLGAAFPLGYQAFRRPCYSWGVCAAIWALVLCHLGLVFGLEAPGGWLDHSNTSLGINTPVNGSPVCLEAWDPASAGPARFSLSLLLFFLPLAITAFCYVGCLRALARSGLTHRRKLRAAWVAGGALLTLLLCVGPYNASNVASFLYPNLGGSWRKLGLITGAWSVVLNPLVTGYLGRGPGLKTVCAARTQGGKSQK
# assay_procedure: IP1 accumulation assay in HEK293 cells stably expressing GPR40
# measurement_conditions: HEK293 cells stably expressing GPR40, 2 hours at 37° C.
pEC50: −log10 of the molar value.
metric_name: pEC50

For orientation, consider the following solved cases.
- compound: "COc1ccc(C(=O)N(CC(C)(C)CCCCCCCCCCCCCCCCCCCCCC[N+]23CCN(CC2)CC3)c2cccc(C)n2)c(N2CCC(COc3cc([C@@H](CC(=O)O)C4CC4)ccn3)CC2)c1"
  pEC50: 8.69
- compound: "COc1ccc(C(=O)N(CC(C)(C)CCn2cc(CCCCCCCCCCCCCCCCCC(=O)NCCNC(=O)C(CCCCN(CCCN)CCCN)NCCCN)nn2)c2cccc(C)n2)c(N2CCC(COc3cc([C@@H](CC(=O)O)C4CC4)ccn3)CC2)c1 (stereo partly drawn)"
  pEC50: 9.15
- compound: "COc1ccc(C(=O)N(CC(C)(C)CCCCCCCCCCCCCCCCCC(=O)NCCC[N+](C)(CC(=O)[O-])CC(=O)O)c2cccc(C)n2)c(N2CCC(COc3cc([C@@H](CC(=O)O)C4CC4)ccn3)CC2)c1 (stereo partly drawn)"
  pEC50: 9.20
- compound: "COc1ccc(C(=O)N(CC(C)(C)CCCCCCCCCCCCCCCCCC(=O)NCCCC[N+](C)(C)C)c2cccc(C)n2)c(N2CCC(COc3cc([C@@H](CC(=O)O)C4CC4)ccn3)CC2)c1"
  pEC50: 9.49
- compound: "COc1ccc(C(=O)N(CC(C)(C)CCCCCCCCCCCCCCCCCCCC(=O)NCCCN(CC(=O)NCCN)CC(=O)NCCN)c2cccc(C)n2)c(N2CCC(COc3cc([C@@H](CC(=O)O)C4CC4)ccn3)CC2)c1"
  pEC50: 8.76
- compound: "COc1ccc(C(=O)N(CC(C)(C)CCCCCCCCCCCCCCCCCCCC(=O)NCCN(CC(=O)NCCN)CC(=O)NCCN)c2cccc(C)n2)c(N2CCC(COc3cc([C@@H](CC(=O)O)C4CC4)ccn3)CC2)c1"
  pEC50: 8.70

P = COc1ccc(C(=O)N(CC(C)(C)CCCCCCCCCCCCCCCCCCCC(=O)NCC[N+](C)(CC(=O)NCCN)CC(=O)NCCN)c2cccc(C)n2)c(N2CCC(COc3cc([C@@H](CC(=O)O)C4CC4)ccn3)CC2)c1
Q = COc1ccc(C(=O)N(CC(C)(C)CCCCCCCCCCCCCCCCCC(=O)NCCC[N+](C)(CC(=O)NCCN)CC(=O)NCCN)c2cccc(C)n2)c(N2CCC(COc3cc([C@@H](CC(=O)O)C4CC4)ccn3)CC2)c1
Q) Returns: the label, P or Q , whose recorded pEC50 is the lower number. State your choice using its label.
A) P

---

# assay_procedure: Pharmacokinetics in mice (IV and PO), plasma LC-MS/MS
# Type: in vivo, Male ICR (CD-1) mice
# measurement_conditions: male, ICR (CD-1), mouse, plasma, 10 mg/kg, PO (10 mpk), oral bioavailability
Structures can show the parent of a compound that is named as a salt.
metric_name: bioavailability (%)

For orientation, consider the following solved cases.
- compound: "COc1ccc(C(=O)N(CC(C)(C)CCCCCCCCCCCCCCCCCCCC(=O)NCCC[N+](C)(CC(=O)[O-])CC(=O)O)c2cccc(C)n2)c(N2CCC(COc3cc([C@@H](CC(=O)O)C4CC4)ccn3)CC2)c1 (stereo partly shown)"
  metric_name: "bioavailability"
  units_of_measure: "%"
  test_result: 0.37
- compound: "COc1ccc(C(=O)N(CC(C)(C)CCCCCCCCCCCCCCCCCC(=O)NCCC[N+]23CC[N+](C)(CC2)CC3)c2cccc(C)n2)c(N2CCC(COc3cc([C@@H](CC(=O)O)C4CC4)ccn3)CC2)c1"
  metric_name: "bioavailability"
  units_of_measure: "%"
  test_result: 0.31
- compound: "COc1ccc(C(=O)N(CC(C)(C)CCCCCCCCCCCCCCCCCC(=O)NCCC[N+]23CCN(CC2)CC3)c2cccc(C)n2)c(N2CCC(COc3cc([C@@H](CC(=O)O)C4CC4)ccn3)CC2)c1 [Example 18, TFA salt]"
  metric_name: "bioavailability"
  units_of_measure: "%"
  test_result: 0.15

A = COc1ccc(C(=O)N(CC(C)(C)CCCCCCCCCCCCCCCCCC(=O)NCCC[N+](C)(CC(=O)NCCN)CC(=O)NCCN)c2cccc(C)n2)c(N2CCC(COc3cc([C@@H](CC(=O)O)C4CC4)ccn3)CC2)c1
B = COc1ccc(C(=O)N(CC(C)(C)CCCCCCCCCCCCCCCCCCCC(=O)NCCCN(CC(=O)O)CC(=O)O)c2cccc(C)n2)c(N2CCC(COc3cc([C@@H](CC(=O)O)C4CC4)ccn3)CC2)c1
Q) Returns: the label, A or B , whose recorded bioavailability is the lower number. State your choice using its label.
A) A
(A: 0.17%, B: 0.52%)

A = COc1ccc(C(=O)N(CC(C)(C)CCCCCCCCCCCCCCCCCCCCCC[N+]23CCN(CC2)CC3)c2cccc(C)n2)c(N2CCC(COc3cc([C@@H](CC(=O)O)C4CC4)ccn3)CC2)c1
B = COc1ccc(C(=O)N(CC(C)(C)CCCCCCCCCCCCCCCCCCCC(=O)NCC[N+](C)(CC(=O)NCCN)CC(=O)NCCN)c2cccc(C)n2)c(N2CCC(COc3cc([C@@H](CC(=O)O)C4CC4)ccn3)CC2)c1
Q) Recorded bioavailability values differ for A and B ; which one is higher? State your choice using its label.
A) A
